Overview of recorded % Phosphatase Activity (compared to DMSO) PRL-1 for various compounds
Biological target: recombinant PRL-1 (Homo sapiens, UniProt Q93096)
Construct: 6xHis (N, cleaved yes); made in house; host or cells: E. coli One Shot BL21 Star
Sequence (Q93096 1-173): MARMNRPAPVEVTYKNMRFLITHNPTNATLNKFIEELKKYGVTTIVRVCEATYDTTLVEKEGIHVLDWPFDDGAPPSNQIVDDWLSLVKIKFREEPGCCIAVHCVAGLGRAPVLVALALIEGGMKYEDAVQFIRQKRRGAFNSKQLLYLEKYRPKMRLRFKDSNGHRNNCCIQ
Test: In vitro phosphatase assay (DiFMUP hydrolysis), PRL-1; note: test concentration or dose not given here
Type: biochemical
Settings: FDA-approved drug screen; activity compared to DMSO
Structures can show the parent of a compound that is named as a salt.
Numeric answer only, unit % assumed.

Recorded % Phosphatase Activity (compared to DMSO) PRL-1, per entry:
// query % Phosphatase Activity (compared to DMSO) PRL-1 value for entry CCCc1nn(C)c2c(=O)[nH]c(-c3cc(S(=O)(=O)N4CCN(C)CC4)ccc3OCC)nc12 [Sildenafil Citrate]
100

Item: COc1cc(O)c(C(=O)c2ccccc2)cc1S(=O)(=O)O [Sulisobenzone]
91

Quick one: CC1=C(CC(=O)O)c2cc(F)ccc2/C1=C\c1ccc([S+](C)[O-])cc1 (centres unmarked) [Sulindac]
83

Same question for Nc1ccc(C(=O)NCC(=O)[O-])cc1.O.[Na+] [Sodium 4-aminohippurate Hydrate] please.
84

// repeat for CN1CCN(CCCN2c3ccccc3Sc3ccc(C(F)(F)F)cc32)CC1.Cl.Cl [Trifluoperazine 2HCl] and report
103

Next:
For the compound Cc1ccccc1C(=O)Nc1ccc(C(=O)N2CCCC(O)c3cc(Cl)ccc32)c(C)c1 (centres unmarked) [Tolvaptan] , what % Phosphatase Activity (compared to DMSO) PRL-1 is on record?
97

Can you check Cl.c1ccc2c(c1)CCCC2C1=NCCN1 (centres unmarked) [Tetrahydrozoline HCl] next?
111

Request: CC[C@@H]1C(=O)N(C)c2cnc(Nc3ccc(C(=O)N[C@H]4CC[C@H](N5CCN(CC6CC6)CC5)CC4)cc3OC)nc2N1C(C)C [Volasertib (BI 6727)]
97
